Target: GABA-A receptor; alpha-1/beta-3/gamma-2 (Homo sapiens, UniProt P14867+P18507+P28472)
Sequence (P14867 whole entry): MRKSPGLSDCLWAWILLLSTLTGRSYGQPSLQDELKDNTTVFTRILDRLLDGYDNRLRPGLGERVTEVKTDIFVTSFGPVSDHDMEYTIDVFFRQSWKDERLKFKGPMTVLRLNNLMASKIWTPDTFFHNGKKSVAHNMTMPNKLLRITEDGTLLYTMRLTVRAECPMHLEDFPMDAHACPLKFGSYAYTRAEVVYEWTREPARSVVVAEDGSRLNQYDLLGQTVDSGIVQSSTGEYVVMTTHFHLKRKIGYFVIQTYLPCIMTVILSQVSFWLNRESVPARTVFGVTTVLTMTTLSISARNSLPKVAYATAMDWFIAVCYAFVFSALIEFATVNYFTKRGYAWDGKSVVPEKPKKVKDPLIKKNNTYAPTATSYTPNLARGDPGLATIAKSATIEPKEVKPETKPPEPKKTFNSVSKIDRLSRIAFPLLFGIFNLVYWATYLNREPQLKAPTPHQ
Sequence (P18507 whole entry): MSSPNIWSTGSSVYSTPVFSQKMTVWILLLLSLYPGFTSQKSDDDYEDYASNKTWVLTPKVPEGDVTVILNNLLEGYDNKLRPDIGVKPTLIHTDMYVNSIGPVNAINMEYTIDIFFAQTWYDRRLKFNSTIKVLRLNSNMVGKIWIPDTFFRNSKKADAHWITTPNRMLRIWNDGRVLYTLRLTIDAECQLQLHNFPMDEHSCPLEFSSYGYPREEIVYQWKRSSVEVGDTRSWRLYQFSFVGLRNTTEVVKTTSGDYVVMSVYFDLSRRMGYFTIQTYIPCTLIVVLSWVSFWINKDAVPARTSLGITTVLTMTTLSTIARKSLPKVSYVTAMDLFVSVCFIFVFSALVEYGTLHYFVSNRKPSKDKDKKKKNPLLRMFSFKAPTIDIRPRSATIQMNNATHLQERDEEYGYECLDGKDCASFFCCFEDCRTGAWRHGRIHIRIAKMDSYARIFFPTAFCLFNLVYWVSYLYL
Sequence (P28472 whole entry): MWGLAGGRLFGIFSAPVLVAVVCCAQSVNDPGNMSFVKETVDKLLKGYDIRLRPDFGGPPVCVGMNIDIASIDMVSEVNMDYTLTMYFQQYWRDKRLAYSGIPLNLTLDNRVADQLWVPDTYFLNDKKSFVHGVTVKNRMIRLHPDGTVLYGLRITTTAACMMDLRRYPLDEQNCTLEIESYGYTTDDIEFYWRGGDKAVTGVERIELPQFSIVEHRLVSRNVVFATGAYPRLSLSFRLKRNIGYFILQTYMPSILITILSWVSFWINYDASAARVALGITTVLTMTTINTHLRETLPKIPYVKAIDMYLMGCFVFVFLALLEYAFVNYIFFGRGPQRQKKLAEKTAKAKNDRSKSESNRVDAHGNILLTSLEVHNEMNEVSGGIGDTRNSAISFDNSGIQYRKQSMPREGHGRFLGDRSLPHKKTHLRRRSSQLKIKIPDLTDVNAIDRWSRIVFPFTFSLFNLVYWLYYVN
Experiment: Binding affinity for human GABA-A receptor alpha-1-beta-3-gamma-2 subunits in L(tk-) cells
READOUT TYPE: Ki

>  <SMILES>
c1ccc(CNc2nn3c(-c4ccccc4)nnc3c3ccccc23)cc1

>  <RESULT>
> 1 µM

$$$$
>  <SMILES>
COc1ccccc1COc1nn2c(-c3ccccc3)nnc2c2ccccc12

>  <RESULT>
> 1 µM

$$$$
>  <SMILES>
c1ccc(-c2nnc3c4ccccc4c(OCC4CCCCC4)nn23)cc1

>  <RESULT>
> 1 µM

$$$$

----------
Molecular target: GABA-A receptor; alpha-1/beta-3/gamma-2 (Homo sapiens, UniProt P14867+P18507+P28472)
Experiment: Binding affinity for human GABA-A receptor alpha-1-beta-3-gamma-2 subunits in L(tk-) cells
pKi: −log10 of the molar value.
READOUT TYPE: pKi

>  <SMILES>
COc1ccc(-c2nnc3c4ccccc4c(=O)n(Cc4ccccc4)n23)cc1

>  <TESTED TARGET>
GABA-A receptor; alpha-1/beta-3/gamma-2 (Homo sapiens, UniProt P14867+P18507+P28472)

>  <RESULT>
< 6.00

$$$$
>  <SMILES>
c1ccc(Oc2nn3c(-c4ccccc4)nnc3c3ccccc23)cc1

>  <TESTED TARGET>
GABA-A receptor; alpha-1/beta-3/gamma-2 (Homo sapiens, UniProt P14867+P18507+P28472)

>  <RESULT>
< 6.00

$$$$
>  <SMILES>
c1ccc(CSc2nn3c(-c4ccccc4)nnc3c3ccccc23)cc1

>  <TESTED TARGET>
GABA-A receptor; alpha-1/beta-3/gamma-2 (Homo sapiens, UniProt P14867+P18507+P28472)

>  <RESULT>
< 6.00

$$$$
